# Assay System: CFTR ΔF508 mutant (Homo sapiens, UniProt P13569, DEL508-508)
# Sequence (P13569 with tags, fused parts or gaps DEL508-508): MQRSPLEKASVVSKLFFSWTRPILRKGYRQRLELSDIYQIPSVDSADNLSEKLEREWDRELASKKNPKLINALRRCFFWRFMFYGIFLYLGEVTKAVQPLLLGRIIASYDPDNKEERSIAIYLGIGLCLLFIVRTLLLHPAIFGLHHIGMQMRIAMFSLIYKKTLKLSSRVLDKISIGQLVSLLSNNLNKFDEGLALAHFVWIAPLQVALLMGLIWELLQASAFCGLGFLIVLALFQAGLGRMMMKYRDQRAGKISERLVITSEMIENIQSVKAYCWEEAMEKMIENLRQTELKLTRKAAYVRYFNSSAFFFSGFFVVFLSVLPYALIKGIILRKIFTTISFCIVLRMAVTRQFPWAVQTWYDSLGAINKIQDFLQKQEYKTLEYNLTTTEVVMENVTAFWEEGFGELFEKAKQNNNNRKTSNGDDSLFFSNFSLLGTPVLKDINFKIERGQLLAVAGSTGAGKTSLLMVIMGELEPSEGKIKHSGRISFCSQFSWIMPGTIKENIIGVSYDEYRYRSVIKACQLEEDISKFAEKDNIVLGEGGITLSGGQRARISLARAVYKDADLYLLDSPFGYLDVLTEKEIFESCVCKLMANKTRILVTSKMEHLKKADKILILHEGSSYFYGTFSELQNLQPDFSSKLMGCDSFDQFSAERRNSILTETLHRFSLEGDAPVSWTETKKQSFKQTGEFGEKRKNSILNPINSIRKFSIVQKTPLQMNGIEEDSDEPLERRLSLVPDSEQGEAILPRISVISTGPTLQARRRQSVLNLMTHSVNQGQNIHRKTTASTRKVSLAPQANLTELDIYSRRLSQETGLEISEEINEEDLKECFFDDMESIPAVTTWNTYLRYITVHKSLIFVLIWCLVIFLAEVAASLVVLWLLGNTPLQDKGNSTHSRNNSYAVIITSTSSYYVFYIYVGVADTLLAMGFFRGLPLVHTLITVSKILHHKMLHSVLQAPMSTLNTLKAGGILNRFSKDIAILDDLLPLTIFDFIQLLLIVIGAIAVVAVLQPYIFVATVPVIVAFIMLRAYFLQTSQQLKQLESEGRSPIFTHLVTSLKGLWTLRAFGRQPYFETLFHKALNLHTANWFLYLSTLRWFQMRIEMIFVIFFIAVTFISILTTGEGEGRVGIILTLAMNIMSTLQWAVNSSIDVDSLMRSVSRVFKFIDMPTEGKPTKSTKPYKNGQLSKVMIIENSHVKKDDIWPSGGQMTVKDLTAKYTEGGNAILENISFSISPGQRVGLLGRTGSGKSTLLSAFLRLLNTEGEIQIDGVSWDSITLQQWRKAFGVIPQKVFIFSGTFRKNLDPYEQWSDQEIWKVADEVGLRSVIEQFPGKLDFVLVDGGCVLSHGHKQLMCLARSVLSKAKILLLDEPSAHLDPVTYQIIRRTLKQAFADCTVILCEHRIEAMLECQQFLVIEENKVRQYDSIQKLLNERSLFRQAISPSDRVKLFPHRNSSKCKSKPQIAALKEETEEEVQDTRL
# Assay Overview: YFP-halide influx assay for the CFTR-ΔF508 mutation
# Condition Parameters: CFBE41o- cells expressing CFTR ΔF508 and YFP reporter; forskolin 10.67 μM; (1-F/F0) vs concentration
# Procedure: The YFP halide influx assay measured the functionality of the cystic fibrosis Transmembrane Conductance regulator (CFTR) channels in the cystic fibrosis bronchial epithelium cell line CFBE41o-. The assay was used to evaluate the capacity of compounds to increase the open probability of existing CFTR channels in the membrane. […] The I-induced quenching of fluorescence was recorded on an immediately after injection of iodide for 2 minutes on an FDSS/μCell (Hamamatsu). […]
pEC50: −log10 of the molar value.
Measure: pEC50

// known answers, use as guide
# Molecule, pEC50
data = [
    ("Nc1cc(S(=O)(=O)c2ccc(OC(F)(F)F)cc2)cnc1-c1nnc(COc2ccccc2)o1 [Compound 13]", 6.49),
    ("Nc1cc(S(=O)(=O)c2ccc(OC(F)(F)F)cc2)cnc1-c1nnc(C[C@H]2CCCO2)s1 [Compound 32]", 7.44),
    ("NC(=O)c1nnc(-c2ncc(S(=O)(=O)c3ccc(OC(F)(F)F)cc3)cc2N)o1 [Compound 8]", 6.52),
    ("Nc1cc(S(=O)(=O)c2ccc(OC(F)(F)F)cc2)cnc1-c1nnc(COC(F)F)s1 [Compound 30]", 8.44),
]

(A) Nc1cc(S(=O)(=O)c2ccc(OC(F)(F)F)cc2)cnc1-c1nnc(CNC(=S)C2CC2)s1 [Compound 18]
(B) Nc1cc(S(=O)(=O)c2ccc(OC(F)(F)F)cc2)cnc1-c1nnc(COC2CCCC2)o1 [Compound 14]
(C) COC(C)c1nnc(-c2ncc(S(=O)(=O)c3ccc(OC(F)(F)F)cc3)cc2N)s1 (stereo not shown) [Compound 22]
(D) Nc1cc(S(=O)(=O)c2ccc(OC(F)(F)F)cc2)cnc1-c1nnc(C[C@H]2CCCO2)o1 [Compound 41]
q: Order by pEC50, ascending. When ranking, write the labels in the order the request describes.
a: B, D, C, A

(1) Nc1cc(S(=O)(=O)c2ccc(OC(F)(F)F)cc2)cnc1-c1nnc(COC(F)(F)F)o1 [Compound 15]
(2) CN(Cc1ccccc1)S(=O)(=O)c1cnc(-c2nnc(CO)o2)c(N)c1 [Compound 60]
q: For 1 and 2 , which recorded pEC50 is lower? Field: selected label. Fill in the label of the entry you choose.
a: 2
(2: 7.82, 1: 8.16)
